Molecular target: GlcA(b1-3)Gal
Assay: glycan array binding signal (z-score within array); higher = stronger binding
Details: glycan notation: IUPAC condensed, linker removed
Shown is part of a subset that was picked to be rich in the strongest signals.

| BINDER | glycan array binding signal (z-score) |
| --- | --- |
| PNA (Arachis hypogaea), P02872 (protein) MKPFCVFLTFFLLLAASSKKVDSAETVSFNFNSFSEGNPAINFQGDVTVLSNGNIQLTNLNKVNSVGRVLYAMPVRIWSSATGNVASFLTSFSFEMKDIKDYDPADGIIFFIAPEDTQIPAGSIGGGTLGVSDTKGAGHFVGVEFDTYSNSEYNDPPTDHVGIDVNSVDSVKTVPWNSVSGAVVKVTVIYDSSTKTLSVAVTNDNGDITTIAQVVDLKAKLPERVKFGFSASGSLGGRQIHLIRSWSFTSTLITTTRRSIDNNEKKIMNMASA | -0.167 |
| AT3G44510(29) (Arabidopsis thaliana), F4J341 (protein) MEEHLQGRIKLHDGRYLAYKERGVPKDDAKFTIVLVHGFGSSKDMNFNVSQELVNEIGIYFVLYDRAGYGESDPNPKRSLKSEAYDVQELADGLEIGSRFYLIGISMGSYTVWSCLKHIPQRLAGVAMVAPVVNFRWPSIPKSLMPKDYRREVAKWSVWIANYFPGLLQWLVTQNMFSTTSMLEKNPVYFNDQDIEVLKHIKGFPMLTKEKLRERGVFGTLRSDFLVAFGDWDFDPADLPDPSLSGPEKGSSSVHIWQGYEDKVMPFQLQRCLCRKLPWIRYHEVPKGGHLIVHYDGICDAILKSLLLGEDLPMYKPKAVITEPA | 1.18 |
| AICL (Homo sapiens), Q92478 (protein) MMTKHKKCFIIVGVLITTNIITLIVKLTRDSQSLCPYDWIGFQNKCYYFSKEEGDWNSSKYNCSTQHADLTIIDNIEEMNFLRRYKCSSDHWIGLKMAKNRTGQWVDGATFTKSFGMRGSEGCAYLSDDGAATARCYTERKWICRKRIH | 5.65 |
| Crocus Lectin (Crocus vernus), Q9FVA1 (protein) MAKSLVLSSLLLALLLAAPLASLADNNVLLTGDVLHTDNQLSFESAAFVMQGDCNLVLYNEAGGFQSNTHGRGVGCTLRLNNFGQLEIHSANSNTPVWVSLRNGIPVRGDYAAVLGPDQHVTIYGPAIWSTPAPNRHERGATVSNIPRVRNVLFSSQVMSDNAQLATRDYSLVMRDDCNLALTKGSKTNIVWESGTSGRGQHCFMRLGHTGLIEISDDRLNTVWRSNTVGQEGDYVLILQINGQAVVYGPAVWSTASPARGGASAAL | -0.179 |
| B936 (Bifidobacterium sp) (protein) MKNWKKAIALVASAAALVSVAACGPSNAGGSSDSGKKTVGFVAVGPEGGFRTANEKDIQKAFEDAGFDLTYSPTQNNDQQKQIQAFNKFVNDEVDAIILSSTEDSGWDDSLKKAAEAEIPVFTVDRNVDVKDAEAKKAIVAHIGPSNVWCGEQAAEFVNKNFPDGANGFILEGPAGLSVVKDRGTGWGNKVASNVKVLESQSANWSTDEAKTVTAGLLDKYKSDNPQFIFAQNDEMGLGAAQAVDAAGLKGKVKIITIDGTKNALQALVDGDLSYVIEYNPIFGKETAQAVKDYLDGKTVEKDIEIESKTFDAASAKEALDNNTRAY | -0.516 |
| Morniga (Morus nigra) (protein) MAGTSTNTQTTGTSQTVEVGLWGGPGGNAWDDGSYTGIREINLSHGDAIGAFSVIYDLNGQPFTGPTHPGNEPSFKTVKITLDFPNEFLVSVSGYTGVLPRLATGKDVIRSLTFKTNKKTYGPYGKEEGTPFSLPIENGLIVGFKGRSGFVVDAIGVHLS | -0.333 |
| ASAL (Allium sativum), P83886 (protein) MGRTTSSPKAMMRIATVAAILTILASTCMARNVLTNGEGLYAGQSLDVEQYKFIMQDDCNLVLYEYSTPIWASNTGVTGKNGCRAVMQRDGNFVVYDVNGRPVWASNSVRGNGNYILVLQKDRNVVIYGSDIWSTGTYRRSVGGAVVMAMNGTVDGGSVIGPVVVNQNVTAAIRKVGTGAA | 5.39 |
